Attribution: PubChem BioAssay AID1508602

measurement_target: G-protein coupled receptor 151 (Homo sapiens) (UniProt Q8TDV0)
Sequence (Q8TDV0 whole entry, looked up): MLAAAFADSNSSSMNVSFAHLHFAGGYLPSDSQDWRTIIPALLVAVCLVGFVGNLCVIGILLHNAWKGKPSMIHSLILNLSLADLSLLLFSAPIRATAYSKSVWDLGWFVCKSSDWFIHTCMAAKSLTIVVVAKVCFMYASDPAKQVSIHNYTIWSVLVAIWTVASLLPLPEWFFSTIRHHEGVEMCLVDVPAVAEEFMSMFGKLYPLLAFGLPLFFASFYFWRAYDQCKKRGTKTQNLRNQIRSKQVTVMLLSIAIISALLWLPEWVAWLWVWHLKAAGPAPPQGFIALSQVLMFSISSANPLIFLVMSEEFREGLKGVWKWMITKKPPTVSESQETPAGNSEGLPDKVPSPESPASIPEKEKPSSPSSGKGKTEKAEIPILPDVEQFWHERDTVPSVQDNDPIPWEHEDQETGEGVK
assay_explanation: activators of human GPR151, primary screen, cell-based, PathHunter beta-arrestin, luminescence (AID 1508602);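 note: 0% = median of compound wells and 100% = cells with positive control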
condition_label: PathHunter beta-arrestin GPR151 cells, at 11.2 µM
In all, about 650,000 compounds went through this assay and about 6,800 (1%) were called active. Cut-off read from the data, not from the text of the source: active = activation above about 4.9%; inactive = the rest. The list comes from a sample in which actives are over-represented; it also holds close analogues and randomly drawn compounds.
The categories you may choose from are active, inactive

> print(dat)
                                   molecule       cat
1  COc1ccccc1C1CCCN1C(=O)C1CC(Cc2ccc(F)cc2)=NO1 (stereo not drawn)  inactive
2  Cc1nc(N2CCCC2C(=O)N2CC3CCC2C3)nc2ccccc12 (stereo not drawn)  inactive

Below: the item to evaluate.
What is the recorded call for this molecule in the test? COc1ccccc1C1CCCN1C(=O)C1CCN(c2nc(C)c3ccccc3n2)CC1 (stereo not drawn) active

----------
measurement_target: G-protein coupled receptor 151 (Homo sapiens)
assay_explanation: activators of human GPR151, primary screen, cell-based, PathHunter beta-arrestin, luminescence (AID 1508602);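 note: 0% = median of compound wells and 100% = cells with positive control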
condition_label: PathHunter beta-arrestin GPR151 cells, at 11.2 µM
Out of some 650,000 compounds screened, about 6,800 (1%) were called active. Cut-off read from the data, not from the text of the source: active = activation above about 4.9%; inactive = the rest. This excerpt belongs to a sample that is enriched for actives.
Tick one outcome: 1 (yes) for active, 0 (no) for inactive

> print(dat)
                                   compound                        measurement.target      cat
1  COc1ccccc1C(=O)CN1CCN(S(=O)(=O)c2ccc(Cl)cc2)CC1  G-protein coupled receptor 151 (Homo sapiens)   0 (no)
2  COc1ccccc1/C=C/CN1CCNC(=O)C1CC(=O)NC1CC1 (stereo not given)  G-protein coupled receptor 151 (Homo sapiens)   0 (no)
3  NC(=O)c1ccc(Nc2nccn3c(-c4cccc(F)c4)cnc23)cc1  G-protein coupled receptor 151 (Homo sapiens)   0 (no)
4  Cc1nc2cc(C(=O)NCc3ccc4c(c3)OCO4)ccc2n1-c1ccc(OCc2ccccc2)cc1  G-protein coupled receptor 151 (Homo sapiens)  1 (yes)

Kindly provide the recorded test outcome for the following compound: "CCNc1nc(NC(C)C)nc(OCCOC(=O)c2ccccc2)n1" 0 (no)

Could you please tell me the result logged for "NC(=O)c1c(NC(=S)NC(=O)c2ccccc2)sc2c1CCCCCC2" in this assay? 0 (no)

How was "COc1ccccc1-n1c(C)nc2cc(C(=O)NCc3ccc4c(c3)OCO4)ccc21" classified in this test? 0 (no)

Which outcome did this test record for the compound "CC(C)(C)c1ccc(C(=S)NCCCn2ccnc2)cc1" ? 0 (no)

Could you please tell me the result logged for Cc1ccc(C)n1-c1ccc(C(=O)NCC(c2ccco2)N(C)C)cc1 (stereo not given) in this assay? 0 (no)

# lookup: test call for "Cc1ccc(-c2nnc(NCc3ccccc3)c3ccccc23)cc1S(=O)(=O)N1CCOCC1" 0 (no)

----------
measurement_target: G-protein coupled receptor 151 (Homo sapiens)
assay_explanation: activators of human GPR151, primary screen, cell-based, PathHunter beta-arrestin, luminescence (AID 1508602);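 note: 0% = median of compound wells and 100% = cells with positive control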
condition_label: PathHunter beta-arrestin GPR151 cells, at 11.2 µM
About 6,800 (1%) of roughly 650,000 compounds were called active. No stated cut-off is given here; in the data, active means activation above about 4.9%; inactive means the rest. The sample holds actives, similar compounds and a random draw of the others, so the mix is not that of the screen.
In this exercise, the only acceptable responses are 1 = active, 0 = inactive

Some solved cases for reference:
> print(dat)
                                   molecule                        measurement.target  cat
1  CCCC1CCC(c2ccc(-c3ccc(CC)cn3)cc2F)CC1 (stereo unspecified)  G-protein coupled receptor 151 (Homo sapiens)    0
2  COc1cc(Nc2cc(N3CCN(c4ccc(F)cc4)CC3)c3noc4c3c2C(=O)c2ccccc2-4)cc(OC)c1OC  G-protein coupled receptor 151 (Homo sapiens)    1
3  Cc1ccccc1-n1c(SCC#N)nc2c(sc(=S)n2-c2ccccc2C)c1=O  G-protein coupled receptor 151 (Homo sapiens)    0
4  Cc1cccc(C)c1-n1c(=S)sc2c(=O)n(-c3cccc(Cl)c3)c(SCC#N)nc21  G-protein coupled receptor 151 (Homo sapiens)    1
5  CCOC(=O)c1c(NC(=O)CSc2nnc(CNC(=O)Cc3ccc(OC)cc3)n2-c2ccc(F)cc2)sc2c1CCCC2  G-protein coupled receptor 151 (Homo sapiens)    0

Hi, sorry to bother you, what did the test record for "CCCCOc1ccc(OC(=O)c2ccc(-c3ccc(CC)cn3)cc2)cc1" ? 0

I'd appreciate the recorded outcome for "CCc1nc2ccccc2c2nn(CC(=O)NCCc3ccc(OC)c(OC)c3)c(=O)n12" from this test. 0

What is the recorded call for this molecule in the test? "O=C(Cn1c(=O)n(Cc2ccccc2)c(=O)c2ccccc21)c1ccccc1" 1

Call for entry CCc1ccc(-c2ccc(C3CCC(CC)CC3)cc2)nc1 (stereo unspecified) : 1

Returns: the outcome recorded for "COC(=O)C1=CN(Cc2ccc(F)cc2)C=C(C(=O)OC)C1c1ccc(OC)c(OC)c1" in this assay. 0

----------
Please respond with reported activation for every item in the list.
measurement_target: G-protein coupled receptor 151 (Homo sapiens)
assay_explanation: activators of human GPR151, primary screen, cell-based, PathHunter beta-arrestin, luminescence (AID 1508602);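 note: 0% = median of compound wells and 100% = cells with positive control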
condition_label: PathHunter beta-arrestin GPR151 cells, at 11.2 µM, hits give high values
About 6,800 (1%) of roughly 650,000 compounds were called active. The list comes from a sample in which actives are over-represented; it also holds close analogues and randomly drawn compounds.
Answers are plain numbers, in %.

Report activation for each item below.
1. CCOC(=O)c1cc2c(=O)n3ccccc3nc2n(Cc2ccco2)c1=NC(=O)c1ccc(Cl)cc1
2. CCOCCCNC(=O)/C(C#N)=C/c1c(Oc2ccc(CC)cc2)nc2ccccn2c1=O
3. O=C(CN1C(=O)NC2(CCCCCC2)C1=O)Nc1ccc(S(=O)(=O)N2CCCC2)cc1
4. O=C(CN1C(=O)CCC1=O)Nc1ccc(S(=O)(=O)N2CCOCC2)cc1
5. Cc1ccccc1-c1cccc(CN2CCC(=O)N(C)CC2)c1
6. Cc1cc(Br)ccc1OCC(=O)N1CCN(C=O)CC1

-0.357
-7.56
1.73
6.57
0.112
-1.7

Record activation for all entries; do not skip any.
1. Cc1ccccc1Nc1nnc(SCC(=O)N(C)C)s1
2. COc1cc(-c2cncc(-c3cccc(C(=O)NCCN(C)C)c3)n2)cc(OC)c1OC
3. COC(=O)CCC(=O)Nc1ccc(S(=O)(=O)N2CCOCC2)cc1
4. CCN(CC)C(=O)Cn1cnc2sc(C(=O)NCc3ccc(Cl)cc3)c(C)c2c1=O

[-2.99, -0.823, -0.0636, 0.437]

----------
For each entry below, report its activation value.
measurement_target: G-protein coupled receptor 151 (Homo sapiens)
assay_explanation: activators of human GPR151, primary screen, cell-based, PathHunter beta-arrestin, luminescence (AID 1508602);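 note: 0% = median of compound wells and 100% = cells with positive control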
condition_label: PathHunter beta-arrestin GPR151 cells, at 11.2 µM, hits give high values
Screen size: about 650,000 compounds; about 6,800 (1%) were called active. For the sample, actives were picked, then their nearest neighbours and some compounds at random.
One number for each entry, in %.

# count of solved cases: 6
> print(dat)
                                   molecule  measured.attribute  units.of.measure  number
1  COC(=O)C1(C)NC(c2ccccc2OC)C2C(=O)N(c3ccccc3)C(=O)C21 (stereo not given)          activation                 %    5.08
2  COc1cccc(N2CCN(c3ncnc4c3c(-c3ccccc3)cn4-c3ccccc3)CC2)c1          activation                 %    1.89
3         COc1ccc(-c2noc(-c3ccccc3Cl)n2)cc1          activation                 %    6.08
4  COc1ccc(NC(=O)Cn2nnc(-c3ccccc3NC(=O)c3cccc(C)c3)n2)cc1          activation                 %  -0.639
5    c1ccc(CN2CCC(Nc3nnnn3-c3ccccc3)CC2)cc1          activation                 %   0.295
6  CC(Nc1ccc(-c2cccc(C=O)c2)cn1)c1ccc(F)cc1 (stereo not given)          activation                 %    3.31

Parameters: items (list). Returns: activation for each item.
1. COc1ccc(-c2noc(-c3ccc(Br)cc3)n2)cc1
2. COC(=O)C1(C)NC(c2ccc(C)cc2)C2C(=O)N(c3ccc(F)cc3)C(=O)C21 (stereo not given)
3. Cc1ccc(-c2nnc(N3CCOCC3)c3ccccc23)cc1S(=O)(=O)N1CCN(C)CC1
4. COC(=O)C1(C)NC(c2ccc(C)cc2)C2C(=O)N(c3ccc(C)cc3)C(=O)C21 (stereo not given)

1: -0.475; 2: -0.111; 3: 5.54; 4: -0.33
